# Tested on: Glutamate receptor ionotropic, NMDA 3A (GRIN3A) ligand-binding domain
# Method Description: binders of NR3A ligand-binding domain, primary screen, biophysical, differential scanning fluorimetry, uHTS (AID 1259313)
# Measurement Conditions: NR3A LBD differential scanning fluorimetry, at 25 µM, hits give high values, 0% = protein alone, 100% = glycine-bound protein
Screen size: about 340,000 compounds; about 8,500 (2.5%) were called active. Shown is part of a subset that was picked to be rich in actives.
Can you tell me Tm shift relative to glycine control for the items I'm about to list?
API: value field is a number in %; no unit string.

Look up Tm shift relative to glycine control: CC(=O)Nc1ccc(C(=O)CSc2nc3ccc(C)cc3[nH]2)cc1
-17.4

Look up Tm shift relative to glycine control: NS(=O)(=O)c1cccc(NC(=O)CSc2nc3ccccc3n2-c2ccccc2)c1
-3.25

Look up Tm shift relative to glycine control: Cc1ccc(C)c(NC(=O)C2CCCN2C(=O)OC(C)(C)C)c1 (stereo unspecified)
4.23

Look up Tm shift relative to glycine control: COc1ccccc1C(=O)NC(=S)Nc1ccccc1N1CCCCC1
-4.34

Look up Tm shift relative to glycine control: Cc1ccc(-c2nn(-c3ccccc3)cc2C(=O)Nc2cccc(S(=O)(=O)N3CCOCC3)c2)cc1
10.7

Look up Tm shift relative to glycine control: Cc1ccc(-n2nc3c(=O)n(C(C)C(=O)NCc4ccc5c(c4)OCO5)nc(C)c3c2C)cc1 (stereo unspecified)
0

Look up Tm shift relative to glycine control: Cc1noc(C)c1S(=O)(=O)Nc1ccc(C(=O)N2CCN(c3ccc(F)cc3)CC2)cc1
-0.58

Look up Tm shift relative to glycine control: Cc1ccc(-c2nn(-c3ccccc3)cc2/C=C/C(=O)Nc2cccc(S(N)(=O)=O)c2)cc1
28.9

Look up Tm shift relative to glycine control: O=C(COC(=O)c1ccc(O)cc1O)NC(=O)c1ccccc1
-11.9

Look up Tm shift relative to glycine control: O=C(O)c1ccc(NC(=O)c2cn(-c3ccccc3)nc2-c2ccc(Cl)cc2)cc1
12

Look up Tm shift relative to glycine control: C=CCn1c(=NC(=O)c2ccc(S(=O)(=O)N3CCCC3)cc2)sc2cc(NC(C)=O)ccc21
18.6

Look up Tm shift relative to glycine control: CC(C)(C)OC(=O)N1CCC(C(=O)NNC(=O)c2ccc(Cl)cc2Cl)CC1
-2.13

Look up Tm shift relative to glycine control: O=C(O)c1ccccc1N=N/C(=N/Nc1cc(S(=O)(=O)O)ccc1O)c1ccccc1
25.2

Look up Tm shift relative to glycine control: O=C1C=C(NCCNc2c(F)c(F)c(CO)c(F)c2F)CCC1
-8.05

Look up Tm shift relative to glycine control: O=C(NNc1c2ccccc2nc2ccccc12)c1cc2ccccc2cc1O
30.2

Look up Tm shift relative to glycine control: CC(=O)Nc1ccc(S(=O)(=O)N2CCSCC2)cc1
0.09

Look up Tm shift relative to glycine control: C[C@@H]1C(c2ccc(F)cc2)=NN(c2ccc(Br)cc2)[C@H]1C(=O)N1CCOC1=O
7.36

Look up Tm shift relative to glycine control: Cc1occc1C(=O)Nc1cccc(S(=O)(=O)N2CCOCC2)c1
0.26

Look up Tm shift relative to glycine control: O=C(NCCc1ccccc1)C(=O)NCC1OCCN1S(=O)(=O)c1cccs1 (stereo unspecified)
5.49

Look up Tm shift relative to glycine control: COc1ccc(Br)cc1C(=O)Nc1cccc(C)c1C
-2.13

Look up Tm shift relative to glycine control: Oc1ccc(Br)cc1/C=N/Nc1ccccn1
-22

Look up Tm shift relative to glycine control: O=C(NNC(=O)c1ccccc1O)c1ccccc1O
2.79

Look up Tm shift relative to glycine control: COc1ccc(-n2c(SCC(=O)NCc3ccco3)nnc2-c2c[nH]c3ccccc23)cc1
-3.71

Look up Tm shift relative to glycine control: CN(CCc1ccccn1)C1CCCN(S(=O)(=O)c2ccccc2Cl)C1 (stereo unspecified)
-1.11

Look up Tm shift relative to glycine control: Cc1ccc(-n2ncc(C(=O)NC3CC3)c2C2CCN(C(=O)OC(C)(C)C)CC2)c(C)c1
13.4

Look up Tm shift relative to glycine control: Cc1nc2ccccn2c(=O)c1NC(=O)c1cccs1
2.62

Look up Tm shift relative to glycine control: O=C(CNS(=O)(=O)c1cccc(C(F)(F)F)c1)Nc1ccccc1F
-1.13

Look up Tm shift relative to glycine control: COc1cc(NC(=O)c2cc([N+](=O)[O-])ccc2Br)ccc1NC(=O)c1ccco1
-2.17

Look up Tm shift relative to glycine control: O=C1OCCN1C(=O)[C@H]1[C@H](c2ccc(Cl)cc2)C(c2cccc(Cl)c2)=NN1c1ccc(Br)cc1
18.1

Look up Tm shift relative to glycine control: Cc1ccc(-c2nn(-c3ccccc3)cc2C(=O)NC2CCC(O)CC2)cc1 (stereo unspecified)
-1.68

Look up Tm shift relative to glycine control: O=C1OCCN1C(=O)[C@H]1[C@H](c2ccccc2)C(c2ccc(F)cc2)=NN1c1ccccc1
-6.51
